From: paper PMC5464773

- study_target: Myc-tagged Bfl-1 (human, UniProt Q16548 1-175)
- Sequence (Q16548 whole entry): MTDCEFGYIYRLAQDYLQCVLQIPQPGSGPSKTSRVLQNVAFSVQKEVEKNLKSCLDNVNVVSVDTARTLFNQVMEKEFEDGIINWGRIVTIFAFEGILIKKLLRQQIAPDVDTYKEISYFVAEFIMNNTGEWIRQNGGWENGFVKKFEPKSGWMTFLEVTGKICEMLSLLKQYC
- assay_details: fluorescence polarisation; competition: 0–10 μM unlabeled peptide titrated into 50 nM c-myc-tagged receptor plus 25 nM fluoresceinated BIM; 25 mM Tris pH 7.8, 50 mM NaCl, 1 mM EDTA, 5% DMSO, 0.001% v/v Triton-X; 23°C, 3 hr; fit to a complete competitive binding model
- assay_conditions: both partners purified

[
  {
    "binder": "RPVIWIAQGLRRAGDEVNAYVAR (probably N-terminal acetyl and C-terminal amide; 23-mer 1f-4g assumed by analogy with PUMA/FS2; printed E2bV read as E2aV (2b is Ile in BIM, 2a is Glu and FS2 has Val at 2a); A2eA is no change / Myc …) [BIM-FS2]",
    "Ki": "0.72 µM"
  }
]
